Target: T1, IL-3Rα, CD123 (interleukin 3 receptor subunit alpha) as expressed on CD123-positive human cancer cell lines … (human, UniProt P26951 20-378)
T1 construct: Target of the flow cytometry on the human cell line MOLM-13 (CD123-positive); NCBI Gene ID 3563; also called IL3RA; IL3R-alpha
T1 sequence: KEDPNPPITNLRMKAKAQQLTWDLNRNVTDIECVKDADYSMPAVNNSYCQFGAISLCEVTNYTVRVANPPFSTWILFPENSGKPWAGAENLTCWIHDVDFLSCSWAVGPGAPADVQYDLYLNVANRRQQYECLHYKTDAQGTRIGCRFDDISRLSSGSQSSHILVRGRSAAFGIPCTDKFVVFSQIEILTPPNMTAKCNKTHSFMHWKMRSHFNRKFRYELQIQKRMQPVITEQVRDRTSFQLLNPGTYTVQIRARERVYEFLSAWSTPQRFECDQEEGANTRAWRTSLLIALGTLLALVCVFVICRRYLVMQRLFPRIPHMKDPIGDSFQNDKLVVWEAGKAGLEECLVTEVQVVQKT
Test: flow cytometry on MOLM-13 cells, anti-kappa-FITC secondary antibody
Record form. Attribute: EC50. Fill in for each entry.
Give the number first and the unit second.

Use these answered entries as a reference point.
# Binder, EC50
data = [
    ("TPP-9104 (antibody, human IgG1, kappa, V domains shown) VH: EVQLLESGGGLVQPGGSLRLSCAVSDYSITSNYYWNWIRQAPGKKLEWMGYISYDGSNNYNPSLKNGRITISRDTSKNTFYLQMNSLRAEDTAVYYCARGEGFYFDSWGQGTLVTVSS VL: EIVLTQSPGTLSLSPGERATLSCKSSQSLFFGSTQKNYLAWYQQKPGQAPRLLIYWASTRESGIPDRFSGSGSGTDFTLTISRLEPEDFAVYYCQQYYNYPWTFGQGTKLEIKR", "25.3 nM"),
    ("TPP-9130 (antibody, human IgG1, kappa, V domains shown) VH: EVQLLESGGGLVQPGGSLRLSCAVSDYSITSGYYWNWIRQAPGKKLEWMGYISYDGSNNYNPSLKNGRITISRDTSKNTFYLQMNSLRAEDTAVYYCARGEGFYFDSWGQGTLVTVSS VL: EIVLTQSPGTLSLSPGERATLSCKSSQSLFFGSTQKNYLAWYQQKPGQAPRLLIYGASSRATGIPDRFSGSGSGTDFTLTISRLEPEDFAVYYCQQYYNYPWTFGQGTKLEIKR", "3.01 nM"),
    ("TPP-6013 (antibody, human IgG1, kappa, V domains shown, Chimeric antibody: murine 12F1 variable domains with human IgG1 kappa constant regions; also called antiCD123-12F1-hIgG1Kappa; chimeric variant of 12F1) VH: QVQLQESGPGLVKPSQSLSLTCSVTDYSITSGYYWNWIRQFPGNKLEWMGYISYDGSNNYNPSLKNRISITRDTSKNQFFLKLSSVTTEDTATYYCSRGEGFYFDSWGQGTTLTVSS VL: DIMMSQSPSSLAVSVGEKFTMTCKSSQSLFFGSTQKNYLAWYQQKPGQSPKLLIYWASTRESGVPDRFTGSGSGTDFTLAISSVMPEDLAVYYCQQYYNYPWTFGGGTKLEIKR", "2 nM"),
    ("TPP-8988 (antibody, human IgG1, kappa, V domains shown, Humanized variant of 12F1 (IGKV3-20 / IGHV3-66 frameworks), human IgG1 kappa) VH: EVQLLESGGGLVQPGGSLRLSCAVSDYSITSGYYWNWIRQAPGKKLEWMGYISYDGSNNYNPSLKNGRITISRDTSKNTFYLQMNSLRAEDTAVYYCARGEGFYFDSWGQGTLVTVSS VL: EIVLTQSPGTLSLSPGERATLSCKSSQSLFFGSTQKNYLAWYQQKPGQAPRLLIYWASTRESGIPDRFSGSGSGTDFTLTISRLEPEDFAVYYCQQYYNYPWTFGQGTKLEIKR", "1.9 nM"),
]

From here, focus on the item given below.
Task: Given TPP-5969 (antibody, human IgG1, kappa, V domains shown, Humanized version of murine 7G3, human IgG1 kappa; also called HU7G3-4-hIgG1Kappa) VH: QVQLVQSGAEVKKPGSSVKVSCKASGGTFSDYYMKWVRQAPGQGLEWMGDIIPSNGATFYAQKFQGRVTITADESTSTAYMELSSLRSEDTAVYYCARSHLLRASWFAYWGQGTLVTVSS VL: DIVMTQSPDSLAVSLGERATINCESSQSLLNSGNQKNYLTWYQQKPGQPPKLLIYWASTRESGVPDRFSGSGSGTDFTLTISSLQAEDVAVYYCQNDYSYPYTFGQGTKLEIKR , state its recorded EC50.
Output: 5.3 nM
